assay: Pentamidine pharmacokinetics after transdermal application in Rhesus monkeys (plasma, urine, residual analysis); conditions: rhesus monkey, plasma, topical or ocular, 292 mg, % Absolute Bioavail., Average (SD), (AUCtrans/AUCiv) × (DOSEiv/DOSEtrans) × 100; average of 4 monkeys
property-measured: bioavailability (%)
Give bare numbers, in %.

Prompt: I am curious: what bioavailability value has been reported for `N=C(N)c1ccc(OCCCCCOc2ccc(C(=N)N)cc2)cc1` ?
Completion: 43.6

----------
Assay: Pentamidine pharmacokinetics after IV infusion in Rhesus monkeys (plasma, urine)
Type: in vivo
Conditions: rhesus monkey, urine, iv, 4 mg/kg, amount in urine (0-48 h)/AUCiv; average of 4 monkeys; read-out: Renal Clearance, IV dose, Average (SD) (converted)
Description: Pentamidine was administered to four Rhesus monkeys by an IV infusion of 1 hr duration which was designed to deliver 4 mg drug/kg animal weight. Urine samples were obtained at -24 to 0 hr, 0 to 3 hr, 3 to 7 hr, 7 to 24 hr and 24 to 48 hr. Blood (2 ml) was withdrawn from an arm vein at -24 hr, 0.5 hr, 1 hr, 2 hr, 3 hr, 5 hr, 7 hr, 24 hr and 48 hr after the end of the IV infusion. Plasma was obtained from the heparinized blood by centrifugation.
property-measured: CL renal at 48 h (mL/min)
Give bare numbers, in mL/min.

Prompt: I am curious: what CL renal at 48 h value has been reported for `N=C(N)c1ccc(OCCCCCOc2ccc(C(=N)N)cc2)cc1` ?
Completion: 10

----------
assay: Pentamidine pharmacokinetics after IV infusion in Rhesus monkeys (plasma, urine); assay type: in vivo; conditions: rhesus monkey, plasma, iv, 4 mg/kg, AUC, IV (0-5 h), Average (SD); IV 4 mg/kg, 1 hr infusion; average of 4 monkeys
property-measured: AUC at 5 h (ng·h/mL)
Give bare numbers, in ng·h/mL.

Prompt: I am curious: what AUC at 5 h value has been reported for `N=C(N)c1ccc(OCCCCCOc2ccc(C(=N)N)cc2)cc1` ?
Completion: 704

----------
experiment: Pentamidine pharmacokinetics after transdermal application in Rhesus monkeys (plasma, urine, residual analysis); conditions: rhesus monkey, plasma, topical or ocular, 292 mg, AUC, Trans (0-72 hr), Average (SD); transdermal 292 mg; average of 4 monkeys
property-measured: AUC at 72 h (µg·h/mL)
One number for each entry, in µg·h/mL.

Prompt: I am curious: what AUC at 72 h value has been reported for `N=C(N)c1ccc(OCCCCCOc2ccc(C(=N)N)cc2)cc1` ?
Completion: 4.49
